# Tested on: S. aureus VRSA
# protocol_description: MIC, broth microdilution, vancomycin-resistant S. aureus (VRSA)
# Format: cell-based, Staphylococcus aureus
# measurement_parameters: VRSA; ratio of MIC of vancomycin and MIC of analogue
MIC-fold improvement vs. vancomycin listing for selected compounds.

- compound: "CC(=O)NC[C@H]1CN(c2ccc(N3CCOCC3)c(F)c2)C(=O)O1 [Linezolid, reference compound]"
  MIC-fold improvement vs. vancomycin: 16
- compound: "CNC(CC(C)C)C(=O)NC1C(=O)NC(CC(N)=O)C(=O)NC2C(=O)NC3C(=O)NC(C(=O)NC(C(=O)NCCCNC(=O)c4ccc5cc(NS(=O)(=O)c6ccc(C)cc6)ccc5c4)c4cc(O)cc(O)c4-c4cc3ccc4O)C(O)c3ccc(c(Cl)c3)Oc3cc2cc(c3OC2OC(CO)C(O)C(O)C2OC2CC(C)(N)C(O)C(C)O2)Oc2ccc(cc2Cl)C1O (stereo not shown)"
  MIC-fold improvement vs. vancomycin: 256
- compound: "CNC(CC(C)C)C(=O)NC1C(=O)NC(CC(N)=O)C(=O)NC2C(=O)NC3C(=O)NC(C(=O)NC(C(=O)NCCCNC(=O)c4ccc5cc(NS(=O)(=O)c6ccccc6)ccc5c4)c4cc(O)cc(O)c4-c4cc3ccc4O)C(O)c3ccc(c(Cl)c3)Oc3cc2cc(c3OC2OC(CO)C(O)C(O)C2OC2CC(C)(N)C(O)C(C)O2)Oc2ccc(cc2Cl)C1O (stereo not shown)"
  MIC-fold improvement vs. vancomycin: 128
- compound: "CCOc1ccc(-c2ccc(NC(=O)CNC(=O)C3NC(=O)C4NC(=O)C(NC(=O)C5NC(=O)C(CC(N)=O)NC(=O)C(NC(=O)C(CC(C)C)NC)C(O)c6ccc(c(Cl)c6)Oc6cc5cc(c6OC5OC(CO)C(O)C(O)C5OC5CC(C)(N)C(O)C(C)O5)Oc5ccc(cc5Cl)C4O)c4ccc(O)c(c4)-c4c(O)cc(O)cc43)cc2)cc1 (stereo not shown)"
  MIC-fold improvement vs. vancomycin: 64
- compound: "CN[C@H](CC(C)C)C(=O)N[C@H]1C(=O)N[C@@H](CC(N)=O)C(=O)N[C@H]2C(=O)N[C@H]3C(=O)N[C@H](C(=O)N[C@H](C(=O)NCCNC(=O)/C=C/c4ccc(NS(=O)(=O)c5ccccc5)cc4)c4cc(O)cc(O)c4-c4cc3ccc4O)[C@H](O)c3ccc(c(Cl)c3)Oc3cc2cc(c3O[C@@H]2O[C@H](CO)[C@@H](O)[C@H](O)[C@H]2O[C@H]2C[C@](C)(N)[C@H](O)[C@H](C)O2)Oc2ccc(cc2Cl)[C@H]1O"
  MIC-fold improvement vs. vancomycin: 256
- compound: "CNC(CC(C)C)C(=O)NC1C(=O)NC(CC(N)=O)C(=O)NC2C(=O)NC3C(=O)NC(C(=O)NC(C(=O)NCC(=O)Nc4ccc(-c5cn(-c6ccc(OC)cc6)nn5)cc4)c4cc(O)cc(O)c4-c4cc3ccc4O)C(O)c3ccc(c(Cl)c3)Oc3cc2cc(c3OC2OC(CO)C(O)C(O)C2OC2CC(C)(N)C(O)C(C)O2)Oc2ccc(cc2Cl)C1O (stereo not shown)"
  MIC-fold improvement vs. vancomycin: 128
- compound: "CNC(CC(C)C)C(=O)NC1C(=O)NC(CC(N)=O)C(=O)NC2C(=O)NC3C(=O)NC(C(=O)NC(C(=O)NCC(=O)Nc4ccc(-c5ccccc5)cc4)c4cc(O)cc(O)c4-c4cc3ccc4O)C(O)c3ccc(c(Cl)c3)Oc3cc2cc(c3OC2OC(CO)C(O)C(O)C2OC2CC(C)(N)C(O)C(C)O2)Oc2ccc(cc2Cl)C1O (stereo not shown)"
  MIC-fold improvement vs. vancomycin: 256

Data origin: paper PMC6001238
